Observed IC50 for human MER (528-end) (Homo sapiens (Human)), reported per entry below.
PARAMETER MEASURED: IC50

In [3]: df
Out[3]:
                                    compound  parameter_measured     test_result
 0  CN(C)Cc1ccccc1OC(=O)N1CC[C@@H](NC(=O)c2cc(-c3cnn(C)c3)cnc2N)C1                IC50       > 1000 nM
 1  CN1CCN(C(C)(C)c2ccc(-c3ccc(C(=O)N4CC[C@@H](NC(=O)c5cc(-c6cnn(C)c6)cnc5N)C4)cc3)cc2)CC1                IC50  100 to 1000 nM
 2  Cn1cc(-c2cnc(N)c(C(=O)N[C@@H]3CCN(C(=O)c4cc5ccccc5n4C)C3)c2)cn1                IC50       > 1000 nM
 3  CSc1ccc(C(=O)N2CC[C@@H](NC(=O)c3cc(-c4cnn(C)c4)cnc3N)C2)cc1                IC50       > 1000 nM
 4  Cn1cc(-c2cnc(N)c(C(=O)N[C@@H]3CCN(C(=O)Oc4cccc(-c5ccc(CN6CCCC(O)C6)cc5)c4)C3)c2)cn1 (some centres unmarked)                IC50  100 to 1000 nM
 5  Cn1cc(-c2cnc(N)c(C(=O)N[C@@H]3CCN(C(=O)Nc4cccc(Oc5ccccc5)c4)C3)c2)cn1                IC50    10 to 100 nM
 6  C/C(=C\c1ccc(C(=O)N2CC[C@@H](NC(=O)c3cc(-c4cnn(C)c4)cnc3N)C2)cc1)c1ccccc1                IC50       > 1000 nM
 7  Cn1cc(-c2cnc(N)c(C(=O)N[C@@H]3CCN(Cc4ccc(F)c(Br)c4)C3)c2)cn1                IC50       > 1000 nM
 8  CN1CCN(c2ccc(-c3cnc(N)c(C(=O)N[C@@H]4CCN(C(=O)c5ccc(-c6ccccc6)cc5)C4)c3)cc2)CC1                IC50    10 to 100 nM
 9  Nc1ncc(-c2ccc(C(=O)N3CCN(CCO)CC3)cc2)cc1C(=O)N[C@@H]1CCN(C(=O)c2ccc(-c3ccccc3Cl)cc2)C1                IC50    10 to 100 nM
10  Nc1ncc(-c2ccc(N3CCOCC3)nc2)cc1C(=O)N[C@@H]1CCN(C(=O)c2ccc(-c3ccc(F)cc3Cl)cc2)C1                IC50    10 to 100 nM
11  Cn1cc(-c2cnc(N)c(C(=O)N[C@@H]3CCN(C(=O)c4cc5c(C(F)(F)F)ccc(Cl)c5[nH]4)C3)c2)cn1                IC50       > 1000 nM
12  COc1ccc(-c2ccc(C(=O)N3CC[C@@H](NC(=O)c4cc(-c5cnn(C)c5)cnc4N)C3)cc2)cc1OC                IC50  100 to 1000 nM
13  Cn1cc(-c2cnc(N)c(C(=O)N[C@@H]3CCN(C(=O)c4ccc(-c5ccc(Oc6ccncc6)cc5)cc4)C3)c2)cn1                IC50    10 to 100 nM

Source of measurements: patent US12378224B2
